Target: human kisspeptin receptor (KISS1R) (human), Q969F8
Sequence (Q969F8 whole entry): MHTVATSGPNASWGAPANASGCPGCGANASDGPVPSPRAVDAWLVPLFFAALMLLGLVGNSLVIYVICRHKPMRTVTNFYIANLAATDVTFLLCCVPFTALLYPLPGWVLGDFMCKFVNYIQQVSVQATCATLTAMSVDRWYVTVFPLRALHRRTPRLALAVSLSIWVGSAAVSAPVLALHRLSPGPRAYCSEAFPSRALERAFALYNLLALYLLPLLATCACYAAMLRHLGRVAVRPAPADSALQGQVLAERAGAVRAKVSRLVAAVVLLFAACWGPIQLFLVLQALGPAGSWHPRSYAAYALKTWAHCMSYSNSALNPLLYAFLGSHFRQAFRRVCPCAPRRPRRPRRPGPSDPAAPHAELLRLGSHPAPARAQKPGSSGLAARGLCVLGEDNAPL
Test: radioligand competition, hKISS1R membranes; legend: A is <10 nM
Numbered stars: 1 amine (or outer) side, 2 acyl side, 3 side chain; on linkers, the order of the positions; unused ones are H or OH. Square brackets hold non-standard residues; d marks the D form. Primed or numbered codes have the meaning given here. Side chains are listed from the residue outwards. * marks the point of attachment. X2 = 4‑amino‑1‑((3-fluoro-4-methylbenzyl)glycyl)piperidine‑4‑carboxylic acid, Cc1ccc(CN(CC(=O)N2CCC(N[*:1])(C(=O)[*:2])CC2)[*:3])cc1F; DOTA = O=C(O)CN1CCN(CC(=O)O)CCN(CC(=O)*)CCN(CC(=O)O)CC1; Butanoyl(4-(4-I-phenyl)) = O=C(CCCc1ccc(I)cc1)*; Api(1-amidino) = N=C(N)N1CCC(N)(C(=O)O)CC1; γGlu = O=C(O)[C@H](CCC(=O)[*:2])N[*:1]; d2Nal = N[C@H](Cc1ccc2ccccc2c1)C(=O)O; Palmitoyl = CCCCCCCCCCCCCCCC(=O)*; 4Pal = N[C@@H](Cc1ccncc1)C(=O)O; Octanoyl = CCCCCCCC(=O)*; PEG4′ = not defined here; Ahx = NCCCCCC(=O)O; azaGly = NNC(=O)O
Would you mind telling me the reported Ki of each entry?

{DOTA-Ahx}-[dW]NTF[azaGly]L[X2][4Pal]-NH2 (SMILES Cc1ccc(CNCC(=O)N2CCC(NC(=O)[C@H](CC(C)C)NC(=O)NNC(=O)[C@H](Cc3ccccc3)NC(=O)[C@@H](NC(=O)[C@H](CC(N)=O)NC(=O)[C@@H](Cc3c[nH]c4ccccc34)NC(=O)CCCCCNC(=O)CN3CCN(CC(=O)O)CCN(CC(=O)O)CCN(CC(=O)O)CC3)[C@@H](C)O)(C(=O)N[C@@H](Cc3ccncc3)C(N)=O)CC2)cc1F) [Compound 290] : < 10 nM

Each of the following entries comes with a recorded value; kindly state Ki for each.
1. Palmitoyl-[γGlu]K([PEG4′-DOTA])[dY][dW]NTF[azaGly]L[X2]W-NH2 [Compound 119]
2. {DOTA-Ahx}-[dK](Butanoyl(4-(4-I-phenyl)))[dY][d2Nal]NTF[azaGly]L[Api(1-amidino)]W-NH2 (SMILES CC(C)C[C@H](NC(=O)NNC(=O)[C@H](Cc1ccccc1)NC(=O)[C@@H](NC(=O)[C@H](CC(N)=O)NC(=O)[C@@H](Cc1ccc2ccccc2c1)NC(=O)[C@@H](Cc1ccc(O)cc1)NC(=O)[C@@H](CCCCNC(=O)CCCc1ccc(I)cc1)NC(=O)CCCCCNC(=O)CN1CCN(CC(=O)O)CCN(CC(=O)O)CCN(CC(=O)O)CC1)[C@@H](C)O)C(=O)NC1(C(=O)N[C@@H](Cc2c[nH]c3ccccc23)C(N)=O)CCN(C(=N)N)CC1) [Compound 336]
3. Octanoyl-[dY]K(DOTA)NTF[azaGly]L[X2]W-NH2 (SMILES CCCCCCCC(=O)N[C@H](Cc1ccc(O)cc1)C(=O)N[C@@H](CCCCNC(=O)CN1CCN(CC(=O)O)CCN(CC(=O)O)CCN(CC(=O)O)CC1)C(=O)N[C@@H](CC(N)=O)C(=O)N[C@H](C(=O)N[C@@H](Cc1ccccc1)C(=O)NNC(=O)N[C@@H](CC(C)C)C(=O)NC1(C(=O)N[C@@H](Cc2c[nH]c3ccccc23)C(N)=O)CCN(C(=O)CNCc2ccc(C)c(F)c2)CC1)[C@@H](C)O) [Compound 381]
4. {3‑(2-(2-methoxyethoxy)ethoxy)propanoic acid}-[dY]K(DOTA)NTF[azaGly]L[Api(1-amidino)]W-NH2 [Compound 197]

[out]
1: < 10 nM; 2: < 10 nM; 3: < 10 nM; 4: < 10 nM
